Molecular target: UniProtKB Q9Y233
Sequence (Q9Y233 290-1055 limits assumed): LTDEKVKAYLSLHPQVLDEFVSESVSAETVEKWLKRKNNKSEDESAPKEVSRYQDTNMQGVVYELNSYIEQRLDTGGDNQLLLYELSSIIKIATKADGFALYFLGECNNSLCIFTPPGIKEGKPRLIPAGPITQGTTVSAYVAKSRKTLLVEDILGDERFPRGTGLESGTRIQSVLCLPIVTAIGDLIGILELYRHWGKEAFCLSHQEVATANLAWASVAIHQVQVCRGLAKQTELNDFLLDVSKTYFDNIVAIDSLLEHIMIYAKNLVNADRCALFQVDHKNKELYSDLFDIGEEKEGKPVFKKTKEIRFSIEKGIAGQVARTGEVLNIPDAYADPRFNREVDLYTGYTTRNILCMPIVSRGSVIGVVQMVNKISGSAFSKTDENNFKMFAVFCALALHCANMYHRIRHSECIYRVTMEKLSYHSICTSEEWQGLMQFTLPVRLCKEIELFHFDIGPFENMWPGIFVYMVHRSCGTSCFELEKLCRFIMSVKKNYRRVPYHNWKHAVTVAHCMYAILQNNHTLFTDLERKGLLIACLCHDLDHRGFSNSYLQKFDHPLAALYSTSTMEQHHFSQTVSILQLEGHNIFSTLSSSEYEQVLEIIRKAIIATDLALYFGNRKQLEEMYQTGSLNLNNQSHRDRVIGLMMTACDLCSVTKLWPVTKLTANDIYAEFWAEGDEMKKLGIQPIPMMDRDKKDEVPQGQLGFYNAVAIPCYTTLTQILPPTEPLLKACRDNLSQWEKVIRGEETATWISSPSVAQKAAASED
Assay: Measurement of PDE activity (recombinant enzyme, HTRF cAMP kit)
Format: biochemical
Settings: Table 1, substrate 20 nM for PDE10, 60 minutes at 29 C, read-out: IC50
Structures can show the parent of a compound that is named as a salt.

{"MOLECULE": "N#Cc1ccc(-c2cccc3cnn(CCc4ccc5ccccc5n4)c(=O)c23)cc1", "TARGET OF ASSAY": "UniProtKB Q9Y233", "IC50": "< 100 nM"}
{"MOLECULE": "O=c1c2c(-c3cncnc3)cccc2c(Cl)cn1C1CC1c1ccc2ccccc2n1 (single isomer, unassigned)", "TARGET OF ASSAY": "UniProtKB Q9Y233", "IC50": "< 100 nM"}
{"MOLECULE": "O=c1c2c(-c3ccc(F)cc3)cccc2ccn1[C@@H]1C[C@H]1c1ccc2ccccc2n1 (relative stereo)", "TARGET OF ASSAY": "UniProtKB Q9Y233", "IC50": "< 100 nM"}
{"MOLECULE": "O=c1c2c(N3CCCC4(CC3)CNCCO4)cccc2cnn1CCc1cn2ccccc2n1 (centres unmarked) [compound 330, dihydrochloride]", "TARGET OF ASSAY": "UniProtKB Q9Y233", "IC50": "200 to 500 nM"}
{"MOLECULE": "O=c1c2c(-c3cncnc3)cccc2cnn1CCc1cn2ccccc2n1", "TARGET OF ASSAY": "UniProtKB Q9Y233", "IC50": "< 100 nM"}
{"MOLECULE": "O=c1c2cccc(-c3ccncc3)c2ccn1C1CC1c1ccc2ccccc2n1 (centres unmarked)", "TARGET OF ASSAY": "UniProtKB Q9Y233", "IC50": "< 100 nM"}
{"MOLECULE": "O=c1c2c(C3CCNCC3)csc2ccn1CCc1ccc2ccccc2n1 [Example 215, trifluoroacetate]", "TARGET OF ASSAY": "UniProtKB Q9Y233", "IC50": "100 to 200 nM"}
{"MOLECULE": "O=c1c2c(-c3cccnc3)cccc2cnn1CCc1cn2ccccc2n1", "TARGET OF ASSAY": "UniProtKB Q9Y233", "IC50": "200 to 500 nM"}
